Source of measurements: PubChem BioAssay

Assay: small-molecule microarray binders of probe aEGFR, primary screen, biochemical, biotinylated probe, 635/667 nm fluorescence (AID 1097);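 further: probe is a biotinylated anti-EGFR antibody binding compounds printed on slides; score combines fluorescence near 667 nm and signal to noise of each spot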
Details: higher = more signal
Attribute: composite z-score
No unit in the answer, please; the number alone is enough.

For orientation, consider the following solved cases.
[
  {
    "molecule": "C=C(CCCC)C(=O)CC[C@@H](OC(C)=O)c1ccccc1OCCO",
    "numeric_readout": -0.232
  },
  {
    "molecule": "C=C(CCCC)C(=O)CC[C@@H](OC(=O)c1cccnc1)c1cccc(OCCO)c1",
    "numeric_readout": -0.145
  },
  {
    "molecule": "CCCC=C(CCC)[C@@H](NS(=O)(=O)c1ccc(C(F)(F)F)cc1)c1ccc(-c2ccccc2)cc1",
    "numeric_readout": -0.013
  },
  {
    "molecule": "O=C1OCCC/C=C\\[C@H]2OC34C=CCN(CCN5CCOCC5)C(=O)[C@H]3N(CCCCCO)C(=O)[C@@H]4C12 (stereo partly drawn)",
    "numeric_readout": -0.281
  },
  {
    "molecule": "C=CCN(C(=O)C1N(c2ccc(CCO)cc2)C(=O)C2C(C(=O)O)C3C=CC21O3)C(C)(C)C (stereo not drawn)",
    "numeric_readout": -0.356
  },
  {
    "molecule": "CCC(=O)[C@]12O[C@@]3([C@@H]4C(=O)OCC[C@@H]41)N(Cc1ccccc1)C(C)=C(C(=O)OC)[C@@H](c1ccccc1)N3C2=O",
    "numeric_readout": -0.246
  },
  {
    "molecule": "C[N+](C)(C)CCCCNC(=O)[C@@H]1C[C@@H]2C(=O)N3CCC[C@H]3C(=O)N2[C@@H]1c1cccc(OCCO)c1",
    "numeric_readout": 0.0051
  },
  {
    "molecule": "CC(=O)NCCCC[C@@H]1NC(=O)[C@@H]2C[C@H](C(=O)NCc3ccc(F)cc3)[C@H](c3cccc(OCCO)c3)N2C1=O",
    "numeric_readout": -0.0953
  }
]

Return reported composite z-score. Input molecule: `CN(C)C(=O)[C@@]1(Cc2ccccc2N=[N+]=[N-])N=C(c2ccc(OCCCO)cc2)O[C@H]1c1ccccc1CN=[N+]=[N-]` 0.355

====

Molecular target: NADPH oxidase 4 (Homo sapiens) (UniProt Q9NPH5)
Sequence (Q9NPH5 whole entry, looked up): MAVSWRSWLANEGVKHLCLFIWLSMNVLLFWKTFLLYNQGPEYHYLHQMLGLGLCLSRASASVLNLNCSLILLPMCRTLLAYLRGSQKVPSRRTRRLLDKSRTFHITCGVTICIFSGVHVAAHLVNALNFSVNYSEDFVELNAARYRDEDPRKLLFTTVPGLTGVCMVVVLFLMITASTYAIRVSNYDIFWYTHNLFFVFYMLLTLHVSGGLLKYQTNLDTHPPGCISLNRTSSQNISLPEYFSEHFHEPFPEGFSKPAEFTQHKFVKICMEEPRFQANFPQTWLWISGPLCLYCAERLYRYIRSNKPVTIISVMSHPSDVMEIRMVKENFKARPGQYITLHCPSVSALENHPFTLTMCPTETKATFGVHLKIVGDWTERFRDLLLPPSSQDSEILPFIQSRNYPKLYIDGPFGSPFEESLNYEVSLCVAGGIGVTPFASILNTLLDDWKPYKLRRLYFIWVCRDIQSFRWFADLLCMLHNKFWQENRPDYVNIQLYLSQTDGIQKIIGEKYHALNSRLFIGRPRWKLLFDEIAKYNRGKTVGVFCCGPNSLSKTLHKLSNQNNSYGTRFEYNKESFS
Assay: NOX4-dependent H2O2 signal modulators, primary screen, NOX inhibitor project, cell-based, HEK293-NOX4, tetracycline-induced, Amplex Red fluorescence (AID 1160)
Settings: 45 min, higher = more signal, called active from +8 up or from −8 down
readout_type: z-score
No unit in the answer, please; the number alone is enough.

[
  {
    "compound": "CO[C@H]1O[C@H](CO)[C@@H](OC(=O)CCc2ccccc2)[C@@H]2OC(=O)[C@H](Cc3cccc(Br)c3)C/C=C/C[C@@H](Cc3cccc(Br)c3)C(=O)O[C@@H]12",
    "z-score": 1.57
  },
  {
    "compound": "O=C(NCc1ccccc1)c1ccc(Br)cc1[N+](=O)[O-]",
    "z-score": -0.281
  },
  {
    "compound": "COC(=O)C1=C(C)N(Cc2ccccc2)c2c(C(=O)OC)c(C(=O)OC)c(C(=O)OC)c(=O)n2[C@@H]1c1ccccc1",
    "z-score": 0.873
  },
  {
    "compound": "COCCOC(=O)N1C(=O)[C@@]2(c3cc(C#CCCO)ccc31)[C@H](c1ccc(OCCO)cc1)N1[C@H](c3ccccc3)[C@H](c3ccccc3)OC(=O)[C@H]1[C@@H]2C(=O)NC[C@H](O)c1ccccc1",
    "z-score": 0.385
  },
  {
    "compound": "CCC(=O)[C@]12O[C@@]3([C@@H]4C(=O)OCC[C@@H]41)N(Cc1ccccc1)C(C)=C(C(=O)OC)[C@@H](c1ccccc1)N3C2=O",
    "z-score": 0.785
  },
  {
    "compound": "O=C(CS)NCCCCCCNC(=O)[C@@H]1C[C@@H]2C(=O)N[C@@H](Cc3ccccc3)C(=O)N2[C@@H]1c1ccc(O)cc1",
    "z-score": 0.457
  },
  {
    "compound": "COc1cc2c(cc1OC)CN(C(=O)[C@H]1[C@@H]3C(=O)O[C@@H](c4ccccc4)[C@@H](c4ccccc4)N3[C@@H](c3ccc(O)cc3)[C@]13C(=O)Nc1ccc(C#CC4(O)CCCCCC4)cc13)CC2",
    "z-score": -0.239
  },
  {
    "compound": "COc1ccc(NN2C(C(O)c3cc(OC)c(OC)c(OC)c3)C=CC3C(=O)N(C4CCCCC4)C(=O)C32)cc1 (centres undefined)",
    "z-score": -1.85
  }
]

Return reported z-score. Input compound: `C=CCOC(=O)[C@@H]1[C@H]2C(=O)O[C@H](c3ccccc3)[C@H](c3ccccc3)N2[C@H](c2ccc(OCCOC(=O)[C@H]3C[C@H]4C(=O)N[C@@H](CCCCNC(C)=O)C(=O)N4[C@H]3c3ccc(O)cc3)cc2)[C@@]12C(=O)Nc1ccc(I)cc12` 1.27

Return reported z-score. Input compound: N#Cc1ccc(NN2C(C(O)c3ccc(I)cc3)C=CC3C(=O)N(c4ccccc4)C(=O)C32)cc1 (centres undefined) -4.46

Return reported z-score. Input compound: `[N-]=[N+]=NCc1ccccc1C[C@@]1(C(=O)O)N=C(c2ccc(OCCCO)cc2)O[C@@H]1c1ccccc1N=[N+]=[N-]` 1.21

Return reported z-score. Input compound: O=C1NC(=O)C2C1C=CC(C(O)C=Cc1ccc([N+](=O)[O-])cc1)N2Nc1ccccn1 (centres undefined) -2.01

Return reported z-score. Input compound: `C=CC[C@@]1(C(=O)N2CCOCC2)N=C(c2ccc(OCCCO)cc2)O[C@@H]1c1ccccc1` 0.471

Return reported z-score. Input compound: `C[C@@H]1CC[C@H]2C(=O)N3CCC[C@H]3C(=O)N2[C@H]1c1ccc(Br)cc1` 0.296

====

Assay: CREB reporter modulators under forskolin, primary screen, cell-based, PC12, CRE-LacZ reporter, forskolin-stimulated (AID 1146);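 further: PC12 cells with 6xCRE LacZ reporter stimulated by forskolin 10 µM; beta-galactosidase reporter signal reflecting CREB driven transcription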
Conditions: luminescence, 4.5 h, higher = more signal, called active from +8 up or from −8 down
readout_type: z-score
No unit in the answer, please; the number alone is enough.

For orientation, consider the following solved cases.
[
  {
    "smiles_data": "CC(=O)NCCCC[C@@H]1NC(=O)[C@@H]2C[C@H](C(=O)NCCCCCCN(C)C)[C@H](c3ccc(O)cc3)N2C1=O",
    "numeric_readout": -1.19
  },
  {
    "smiles_data": "COCCOC(=O)N1C(=O)[C@@]2(c3cc(C#CCCO)ccc31)[C@H](c1ccc(OCCO)cc1)N1[C@H](c3ccccc3)[C@H](c3ccccc3)OC(=O)[C@H]1[C@@H]2C(=O)NC[C@H](O)c1ccccc1",
    "numeric_readout": -0.137
  },
  {
    "smiles_data": "CCCC=C(CCC)[C@@H](NS(=O)(=O)c1cccc(C(F)(F)F)c1)c1ccc(C(=O)OC)cc1",
    "numeric_readout": -0.547
  }
]

Consider the record given below.
Return reported z-score. Input compound: `C=C(CCCC)C(=O)CC[C@@H](OC(C)=O)c1ccccc1OCCO` -0.841

====

Test: fission yeast growth modulation, primary screen, strain 972, OD600, 24 h, no modulator (AID 1090);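 further: basal condition with compound alone and no growth modifier present; test concentration not given here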
Details: S. pombe 972 growth, higher = more signal, called active from +8 up or from −8 down
Attribute: z-score
No unit in the answer, please; the number alone is enough.

For orientation, consider the following solved cases.
[
  {
    "compound": "CC[C@@H]1C=C(C(=O)O)[C@H](c2ccccc2)N1S(=O)(=O)c1ccc([N+](=O)[O-])cc1",
    "z-score": -0.434
  },
  {
    "compound": "COc1ccc(NN2C(C(O)c3cc(OC)c(OC)c(OC)c3)C=CC3C(=O)N(C4CCCCC4)C(=O)C32)cc1 (stereo not drawn)",
    "z-score": 0.966
  },
  {
    "compound": "CO[C@H]1COC(=O)[C@H](C)NC(=O)CC=C[C@@H](C)[C@H](NS(=O)(=O)c2ccc(C)cc2)COC(=O)CC=C[C@@H]1C",
    "z-score": -0.635
  },
  {
    "compound": "CCOC(=O)C[C@H]1[C@H](OC(=O)c2ccccc2-c2ccccc2)[C@@H](NC(=O)c2ccc(-c3ccccc3)cc2)c2cc(OCCCO)ccc2N1C(=O)Cc1ccc(OC)cc1",
    "z-score": -0.826
  },
  {
    "compound": "C=CCC(OC(C)=O)[C@@H]1[C@@H](N(Cc2cccc3ccccc23)C(=O)c2ccc(C)cc2)c2cc(OCCCO)ccc2N1C(=O)c1ccc(-c2ccccc2)cc1 (stereo partly drawn)",
    "z-score": 0.167
  },
  {
    "compound": "N#Cc1ccc(NN2C(C(O)CCc3ccccc3)C=CC3C(=O)N(c4ccccc4)C(=O)C32)cc1 (stereo not drawn)",
    "z-score": 0.222
  },
  {
    "compound": "CO[C@H]1COC(=O)[C@@H](OCc2ccccc2)C=C[C@H](C)[C@@H](OC)COC(=O)[C@H](OCc2ccccc2)C=C[C@@H]1C",
    "z-score": -2.88
  },
  {
    "compound": "CN(C)CCCC[C@@H]1NC(=O)[C@@H]2C[C@H](C(=O)NCCCCCNC(=O)CS)[C@H](c3ccc(O)cc3)N2C1=O",
    "z-score": -1.42
  }
]

Return reported z-score. Input compound: `C=CC[C@]1(C(N)=O)N=C(c2ccc(OCCCO)cc2)O[C@H]1c1ccccc1CN=[N+]=[N-]` -0.881

Return reported z-score. Input compound: `COc1ccc([C@H]2C[C@H]3C(Br)=C[C@]2(OC)C(=O)[C@]32CO2)cc1` -3.14

Return reported z-score. Input compound: `C=C[C@H](OC)[C@@H](OC(=O)Nc1ccc(SC)cc1)c1ccc(OC)c(O)c1` -0.965

Return reported z-score. Input compound: `CCOC(=O)C[C@H]1[C@H](OC(=O)Cc2ccc3c(c2)OCO3)[C@@H](NC(=O)CC(C)C)c2cc(OCCCO)ccc2N1C(=O)c1ccccc1` -1.36

Return reported z-score. Input compound: `CCCC=C(CCC)[C@@H](NS(=O)(=O)c1ccc(C(F)(F)F)cc1)c1ccc(-c2ccccc2)cc1` -3.21

Return reported z-score. Input compound: `Cc1ccc(N2C(=O)c3ccccc3[C@](C)(C(=O)NCC(C)C)[C@@H]2c2ccc(CO)cc2)nc1` 0.374

Return reported z-score. Input compound: `CCc1cccc(NC(=O)O[C@H]2[C@H](OC(=O)Nc3ccccc3)[C@@H](OC(=O)Nc3ccccc3)[C@@H](OC)O[C@@H]2CO)c1` 2.57

Return reported z-score. Input compound: `CCOC(=O)C[C@H]1[C@H](OC(=O)Cc2ccc3c(c2)OCO3)[C@@H](NC(=O)c2ccc3ccccc3c2)c2cc(OCCCO)ccc2N1C(=O)Cc1ccc(OC)cc1` -0.366

Return reported z-score. Input compound: `COc1ccc([Si](C)(C)[C@@H]2[C@@H](CC(=O)N(CCO)Cc3ccccc3)O[C@]3(C(=O)N(Cc4cccc(N5CCC5=O)c4)c4ccccc43)[C@H]2C)cc1` 0.463

Return reported z-score. Input compound: COC(=O)C1=CC(c2ccc(CO)cc2)=CC(C2CC2)N(Cc2sc3ccccc3c2Cl)C=C1C(=O)OC (stereo not drawn) -5.52
